- System: A673/TR/shEF
- run.description: cell viability (LOESS-normalised, relative to median of negative controls) (log2 ratio); higher = more viable cells (less compound effect), active = hit call of the paper (over 3 MAD below the median)
- test.conditions: 0.25 µM; library screen: screen1; EWS-FLI1 expression: low (doxycycline-induced shRNA knockdown); treatment time: 72 h
The whole screen tested about 3,200 compounds, of which about 300 (9.4%) showed activity. The sample holds actives, similar compounds and a random draw of the others, so the mix is not that of the screen.
Parameter call: string, one of active, inactive

What did the test return for c1ccc2nc(N3CCNCC3)ccc2c1 ?
inactive

Then CO[C@H]1C[C@H](O[C@H]2CC[C@@]3(C)[C@H](CC[C@@H]4[C@@H]3CC[C@]3(C)[C@@H](C5=CC(=O)OC5)[C@@H](OC(C)=O)C[C@]43O)C2)O[C@@H](C)[C@@H]1O ?
active

Then CC(C)(C#N)O[C@@H]1O[C@H](CO)[C@@H](O)[C@H](O)[C@H]1O ?
inactive

Then C[C@]12CC[C@H](O)C[C@H]1CC[C@@H]1[C@@H]2CC[C@]2(C)[C@@H](C3=CC(=O)OC3)[C@@H](O)C[C@]12O ?
inactive

Then O=C1c2ccccc2C(=O)c2ccccc21 ?
inactive

Then C[C@@H]1[C@H](O)[C@@H](C)/C=C/C=C/CC/C=C/C=C/C=C/C=C/C(O[C@H]2O[C@H](C)[C@@H](O)[C@H](N)[C@@H]2O)CC2O[C@](O)(CC(O)C(O)CCC(O)CC(O)CC(O)CC(=O)O[C@H]1C)CC(O)C2C(=O)O (stereo partly drawn) ?
inactive

Then CC(=O)OC1CC(OC2C(O)CC(OC3C(O)CC(OC4CCC5(C)C(CCC6C5CC(O)C5(C)C(C7=CC(=O)OC7)CCC65O)C4)OC3C)OC2C)OC(C)C1OC1OC(CO)C(O)C(O)C1O (stereo not drawn) ?
inactive

Then CC(=O)c1c(O)c(C)c(O)c(Cc2c(O)c3c(c(C(=O)/C=C/c4ccccc4)c2O)OC(C)(C)C=C3)c1O ?
inactive

Then ClC(Cl)=C(c1ccc(Cl)cc1)c1ccc(Cl)cc1 ?
inactive

Then O=c1ccc2cc(O[C@@H]3OC(CO)[C@@H](O)C(O)C3O)c(O)cc2o1 (stereo partly drawn) ?
inactive

Then NCCc1cc(O)c(O)cc1O ?
inactive

Then CC1(C)C(=O)C=C[C@]2(C)C1=C(O)C(=O)[C@@]1(C)[C@H]2CC[C@]2(C)[C@@H](c3ccoc3)C[C@@H]3O[C@]312 ?
inactive

Then C=C1[C@H]2CCC3[C@@](CC[C@@H]4[C@H](C(=O)O)C[C@@H](O[C@H]5O[C@H](CO)[C@@H](OS(=O)(=O)O)[C@H](OS(=O)(=O)O)[C@H]5OC(=O)CC(C)C)C[C@@]34C)(C2)[C@H]1O (stereo partly drawn) ?
inactive

Then CCCSP(=O)(OCC)SCCC ?
inactive

Then CN1[C@@H]2CC[C@H]1CC(OC(=O)C(CO)c1ccccc1)C2 (stereo partly drawn) ?
inactive

Then C[C@H]1O[C@@H](O[C@H]2[C@@H](O)C[C@H](O[C@H]3[C@@H](O)C[C@H](O[C@H]4CC[C@@]5(C)[C@H](CC[C@@H]6[C@@H]5CC[C@]5(C)[C@@H](C7=CC(=O)OC7)[C@@H](O)C[C@]65O)C4)O[C@@H]3C)O[C@@H]2C)C[C@H](O)[C@@H]1O ?
active

Then ClC1=C(Cl)C2(Cl)C3C(Cl)C=CC3C1(Cl)C2(Cl)Cl (stereo not drawn) ?
inactive

Then COC1C[C@H](O[C@H]2CC[C@]3(C)C4CC[C@]5(C)[C@@H](C6=CC(=O)OC6)CC[C@]5(O)C4CC[C@]3(O)C2)OC(C)[C@H]1O (stereo partly drawn) ?
active
